Values compiled from patent US20240018146A1.

Experiment: Mitotoxicity / Mitotox safety margin (therapeutic window)
Assay type: cell-based
Details: highest safe dose/EC50
Measured Mito-Safety Index (highest safe dose/EC50) of individual entries
Give the figure by itself; no unit, no explanation.

c1ccc2c(c1)CC[C@@H](N1CCOCC1)[C@@H]2Nc1ncnc2[nH]c(C3CC3)cc12 (single isomer, unassigned) | 1.01

Q: Any idea what Mito-Safety Index (highest safe dose/EC50) was measured for c1ccc2c(c1)OC[C@@H](C1CCOCC1)[C@@H]2Nc1ncnc2[nH]c(C3CC3)cc12 ?
Ans: 52.06

Q: Consider the molecule c1ccc2c(c1)CC[C@H](N1C[C@@H]3COC[C@H]3C1)[C@H]2Nc1ncnc2[nH]c(C3CC3)cc12 and give its measured Mito-Safety Index (highest safe dose/EC50).
Ans: 57.75

Q: // returns reported Mito-Safety Index (highest safe dose/EC50) for input COC1CN([C@H]2CCc3ccccc3[C@@H]2Nc2ncnc3[nH]c(C(F)(F)F)cc23)C1 [EP-0040688]
Ans: 26.96

Q: Using the record for Fc1ccc2c(c1)CC[C@H](N1CCOCC1)[C@H]2Nc1ncnc2[nH]c(C3CC3)cc12 (single isomer, unassigned) [EP-0038521] , report its Mito-Safety Index (highest safe dose/EC50).
Ans: 24.49

###

Tested on: HeLa MKYP cells
Experiment: Cell death measured by DAPI staining, with 1 μM FCCP/oligomycin or no toxin (no FO)
Format: cell-based
Conditions: with 1 μM FO
readout: Max % death with 1 μM FO (%)
State just the number; it will be interpreted in %.

Known Max % death with 1 μM FO results, listed for orientation:
c1ccc2c(c1)C[C@H](N1C[C@H]3COC[C@H]3C1)[C@H]2Nc1ncnc2[nH]c(C3CC3)cc12 | 6.5
COC1CN([C@@H]2COc3ccccc3[C@H]2Nc2ncnc3[nH]c(C(F)(F)F)cc23)C1 | 10.3
COC[C@H]1CCCN1[C@H]1COc2ccccc2[C@@H]1Nc1ncnc2[nH]c(C(F)(F)F)cc12 (single isomer, unassigned) | 8.3
FC(F)(F)c1cc2c(N[C@H]3c4ccccc4OC[C@@H]3C3CCCOC3)ncnc2[nH]1 (single isomer, unassigned) | 4.5
COC1CN([C@@H]2CCc3ccccc3[C@H]2Nc2ncnc3[nH]c(C(F)(F)F)cc23)C1 | 6.6

Q: Quick check: Max % death with 1 μM FO of Fc1ccc2c(c1)OC[C@H](N1C[C@@H]3COC[C@H]3C1)[C@H]2Nc1ncnc2[nH]c(C3CC3)cc12 (single isomer, unassigned) [EP-0040873] ?
Ans: 4.3

Q: Given the entry c1ccc2c(c1)CC[C@@H](C1CCOCC1)[C@H]2Nc1ncnc2[nH]c(C3CC3)cc12 , report its measured Max % death with 1 μM FO.
Ans: 29.3

###

Test system: HeLa MKYP cells
Assay: Cell death measured by DAPI staining, with 1 μM FCCP/oligomycin or no toxin (no FO)
Assay type: cell-based
Details: with 1 μM FO
readout: Max % death with 1 μM FO (%)
Enter your answer as a number in %; do not include the unit.

FC(F)(F)c1cc2c(NC3c4ccccc4CCC3N3CCC4(CCOC4)CC3)ncnc2[nH]1 (stereo not shown) | 19.4
C[C@@H]1COCCN1[C@@H]1CCc2ccccc2[C@H]1Nc1ncnc2[nH]c(C(F)(F)F)cc12 (single isomer, unassigned) [EP-0040195] | 12.0
[2H]C([2H])([2H])OC1CN([C@@H]2COc3ccccc3[C@H]2Nc2ncnc3[nH]c(C(F)(F)F)cc23)C1 (racemic) | 4.1

Please examine the following record next.
Q: I'd like to know its Max % death with 1 μM FO. The compound in question is C[C@@H]1CN([C@H]2COc3cc(F)ccc3[C@@H]2Nc2ncnc3[nH]c(C(F)(F)F)cc23)C[C@H](C)O1 [EP-0040946]
Ans: 4.8
